Source: patent US20150218281A1

measuredTarget: T1, full length human OX40L expressed on CHO cells (human, UniProt P23510 1-183)
T1 construct: CHO K1 stably transfected as described for CAKI cells; also called CHO-hOX40L; hOX40L expressing CHO cells
T1 sequence: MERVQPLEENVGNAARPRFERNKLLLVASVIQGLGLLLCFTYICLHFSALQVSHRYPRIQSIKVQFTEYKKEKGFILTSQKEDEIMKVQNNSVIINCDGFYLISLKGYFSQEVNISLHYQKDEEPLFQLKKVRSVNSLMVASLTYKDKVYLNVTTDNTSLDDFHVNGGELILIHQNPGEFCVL
experimentSummary: competition FACS, 3.1 nM hOX40/Fc on hOX40L expressing cells
measuredEndpoint: IC50
Note: a bare number is incomplete; add the unit.

{"binder": "OX40L18E09 (VHH, monovalent Nanobody from E. coli; not shown: C-terminal c-myc and His6 tag) VHH: EVQLVESGGGLVQAGGSLRLSCAASRNILSLNTMGWYRHAPGKPRELVARISSNSKTDYADSVKGRFTISRDNAKNTVLLQMNSLKPEDTGVYYCNLNVWRTSSDYWGQGTQVTVSS", "IC50": "1.73 nM"}
{"binder": "OX40L01E07 (VHH, monovalent Nanobody from E. coli; not shown: C-terminal c-myc and His6 tag) VHH: EVQLVESGGGLVQAGGSLRLSCAASGRTFSSIYAKGWFRQAPGKEREFVAAISRSGRSTSYADSVKGRFTISRDNAKNTVYLQMNSLKPEDTAVYYCAAVGGATTVTASEWDYWGLGTQVTVSS", "IC50": "8.89 nM"}
{"binder": "anti-OX40L benchmark Fab (Fab, V domains shown, papain digest of benchmark IgG; also called LC001 Fab) VH: EVQLLESGGGLVQPGGSLRLSCAASGFTFNSYAMSWVRQAPGKGLEWVSIISGSGGFTYYADSVKGRFTISRDNSRTTLYLQMNSLRAEDTAVYYCAKDRLVAPGTFDYWGQGALVTVSS VL: DIQMTQSPSSLSASVGDRVTITCRASQGISSWLAWYQQKPEKAPKSLIYAASSLQSGVPSRFSGSGSGTDFTLTISSLQPEDFATYYCQQYNSYPYTFGQGTKLEIKR", "IC50": "217 nM"}

Here is another binder to look at.
Recorded IC50 of OX40L19A07 (VHH, monovalent Nanobody from E. coli; not shown: C-terminal c-myc and His6 tag) VHH: EVQLVESGGGLVQAGGSLRLSCAASGFTLDDYAIAWFRQAPGKEREGVSRIKISNGRTTYAGSVKGRFTISSDNAKNTVYLQMNSLNAEDTAVYYCAADRSSLLFGSNWDRKARYDYWGQGTQVTVSS , please.
16.6 nM
